Exercise: state measured growth for each of the molecules provided.
system: MDA-MB-231 breast; assay: NCI-60 one-dose screen, 48 h (100 = growth as untreated, 0 = no growth, -100 = all killed); conditions: 10 µM unless noted
The panel holds about 83,000 compounds, 20% with a hit somewhere; the sample as a whole holds those more often.
One number for each entry, in %.

Example cases with answers are listed next.
molecule=COc1cc(-c2nc(SC(C)C)nc(Nc3ccccc3C)c2C#N)cc(OC)c1OC readout_number=102
molecule="COc1cccc(-c2ccc3c(c2)C2CCN(Cc4ccccc4)C3C2)c1 (stereo not drawn)" readout_number=88.8

Next, consider the following molecule.
# input I have this molecule here, Cc1cccc2c(=O)c3c(sc12)c(NCCCN)nc1ccccc13 , and I need its recorded growth.
# output -32.4

---

system: SNB-75 CNS; assay: NCI-60 one-dose screen, 48 h (100 = growth as untreated, 0 = no growth, -100 = all killed); conditions: 10 µM unless noted
Compounds without any hit were thinned out: in the full panel of roughly 83,000, 20% have a hit. Active and inactive are the calls of the source. How the source made its calls: active means growth percent below 10; inactive means the rest.
So I've got a bunch of molecules here, and I need their growth values.

Consider the following items and state reported growth for each.
1. COC(=O)/C=C1/CCC2C3CCC4=CC(=O)C(Br)CC4(C)C3C(=O)CC12C (stereo not given)
2. COc1ccc(C2OCC(C)(C)CO2)cc1OC
3. COc1cc(C(F)(F)F)ccc1-c1cc(-c2ccc(F)cc2)n[nH]1

# output
["70.8% (inactive)", "102% (inactive)", "74.4% (inactive)"]

Parameter requested: growth. Apply to each item below.
1. CCN(CC)CCCNc1ccc(C)c2sc3ccccc3c(=O)c12
2. COc1nc2c(cc1S(=O)(=O)c1ccccc1)CCc1c-2cnn1-c1cccc(Cl)c1
3. CCCCC/C=C\C/C=C/CCCCCCCCNC(=O)Nc1ccc([N+](=O)[O-])cc1
4. N#Cc1c(O)c2c(c(O)c1C#N)C(=O)c1ccccc1C2=O
5. CC1SC(c2cccc(Oc3ccccc3)c2)N(CCc2cccs2)C1=O (stereo not given)

# output
["47.1% (inactive)", "85.5% (inactive)", "103% (inactive)", "145% (inactive)", "-11.7% (active)"]

Give measured growth for every item shown.
1. COc1ccc(C2SC(C)C(=O)N2CCc2cccs2)cc1OC (stereo not given)
2. CC1(C)N=C(N)N=C(N)N1c1cccc(OCCOc2cccc([N+](=O)[O-])c2)c1

# output
["69.1% (inactive)", "51.8% (inactive)"]

---

Would you kindly list growth for each of these compounds?
Test system: UO-31 renal
Assay: NCI-60 one-dose screen, 48 h (100 = growth as untreated, 0 = no growth, -100 = all killed)
Conditions: 10 µM unless noted
Procedure: Growth inhibition of the UO-31 human tumor cell line is measured as a screen for anti-cancer activity. Cells are grown in 96 well plates and exposed to the test compound for 48 hours. Compounds are tested at a single concentration, which is 10^-5 M for most compounds. The reported endpoint is percent growth (GI% or GIPRCNT), where numbers from 0 - 100% represent growth inhibition, and numbers from -100% - 0 represent cell death. For example, a value of 40 represents 60% growth inhibition. […]
The panel holds about 83,000 compounds, 20% with a hit somewhere; the sample as a whole holds those more often.
Answers are plain numbers, in %.

Here's what some known entries look like.
mol_smiles=COC(=O)[C@@H]1CCCN1C(=O)[C@@H]1CCCN1C(=O)[C@@H](Cc1c[nH]c2ccccc12)NC(=S)Nc1cc(C(F)(F)F)cc(C(F)(F)F)c1 units=% readout_number=41.4
mol_smiles=O=C1/C(=C/c2ccc(Oc3ccccc3)cc2)N=C(c2ccccc2)N1CCc1cccs1 units=% readout_number=67.6

Please give growth, item by item, for the list that follows.
1. Clc1ccc(C2=NN(c3ccccc3)[C@H](c3cn(-c4ccccc4)nc3-c3ccccc3)C2)cc1
2. Nc1c(Br)cc(Br)cc1-c1n[nH]c(=O)[nH]c1=O
3. FC(F)(F)Oc1ccc2c(c1)C[C@H]1C[C@@H](c3ccoc3)N2O1
4. COc1ccc(S(=O)(=O)ON=C2C=C(C)C(=O)C(C)=C2)cc1

# output
1. 94.8
2. 74.3
3. 100
4. 80.4

Items follow; give growth for each.
1. O=C1/C(=C/c2ccc([N+](=O)[O-])cc2)Oc2ccc(O)cc21
2. O=C1C(Cl)=C(NCCCN2CCOCC2)C(=O)c2ccccc21

# output
[70.4, 61]

Reference for the values: PubChem BioAssay (NCI)
